Human FASN pIC50 listing for selected molecules.
Target: hFASN enzyme (full length) (Homo sapiens (Human))
Sequence (P49327 whole entry): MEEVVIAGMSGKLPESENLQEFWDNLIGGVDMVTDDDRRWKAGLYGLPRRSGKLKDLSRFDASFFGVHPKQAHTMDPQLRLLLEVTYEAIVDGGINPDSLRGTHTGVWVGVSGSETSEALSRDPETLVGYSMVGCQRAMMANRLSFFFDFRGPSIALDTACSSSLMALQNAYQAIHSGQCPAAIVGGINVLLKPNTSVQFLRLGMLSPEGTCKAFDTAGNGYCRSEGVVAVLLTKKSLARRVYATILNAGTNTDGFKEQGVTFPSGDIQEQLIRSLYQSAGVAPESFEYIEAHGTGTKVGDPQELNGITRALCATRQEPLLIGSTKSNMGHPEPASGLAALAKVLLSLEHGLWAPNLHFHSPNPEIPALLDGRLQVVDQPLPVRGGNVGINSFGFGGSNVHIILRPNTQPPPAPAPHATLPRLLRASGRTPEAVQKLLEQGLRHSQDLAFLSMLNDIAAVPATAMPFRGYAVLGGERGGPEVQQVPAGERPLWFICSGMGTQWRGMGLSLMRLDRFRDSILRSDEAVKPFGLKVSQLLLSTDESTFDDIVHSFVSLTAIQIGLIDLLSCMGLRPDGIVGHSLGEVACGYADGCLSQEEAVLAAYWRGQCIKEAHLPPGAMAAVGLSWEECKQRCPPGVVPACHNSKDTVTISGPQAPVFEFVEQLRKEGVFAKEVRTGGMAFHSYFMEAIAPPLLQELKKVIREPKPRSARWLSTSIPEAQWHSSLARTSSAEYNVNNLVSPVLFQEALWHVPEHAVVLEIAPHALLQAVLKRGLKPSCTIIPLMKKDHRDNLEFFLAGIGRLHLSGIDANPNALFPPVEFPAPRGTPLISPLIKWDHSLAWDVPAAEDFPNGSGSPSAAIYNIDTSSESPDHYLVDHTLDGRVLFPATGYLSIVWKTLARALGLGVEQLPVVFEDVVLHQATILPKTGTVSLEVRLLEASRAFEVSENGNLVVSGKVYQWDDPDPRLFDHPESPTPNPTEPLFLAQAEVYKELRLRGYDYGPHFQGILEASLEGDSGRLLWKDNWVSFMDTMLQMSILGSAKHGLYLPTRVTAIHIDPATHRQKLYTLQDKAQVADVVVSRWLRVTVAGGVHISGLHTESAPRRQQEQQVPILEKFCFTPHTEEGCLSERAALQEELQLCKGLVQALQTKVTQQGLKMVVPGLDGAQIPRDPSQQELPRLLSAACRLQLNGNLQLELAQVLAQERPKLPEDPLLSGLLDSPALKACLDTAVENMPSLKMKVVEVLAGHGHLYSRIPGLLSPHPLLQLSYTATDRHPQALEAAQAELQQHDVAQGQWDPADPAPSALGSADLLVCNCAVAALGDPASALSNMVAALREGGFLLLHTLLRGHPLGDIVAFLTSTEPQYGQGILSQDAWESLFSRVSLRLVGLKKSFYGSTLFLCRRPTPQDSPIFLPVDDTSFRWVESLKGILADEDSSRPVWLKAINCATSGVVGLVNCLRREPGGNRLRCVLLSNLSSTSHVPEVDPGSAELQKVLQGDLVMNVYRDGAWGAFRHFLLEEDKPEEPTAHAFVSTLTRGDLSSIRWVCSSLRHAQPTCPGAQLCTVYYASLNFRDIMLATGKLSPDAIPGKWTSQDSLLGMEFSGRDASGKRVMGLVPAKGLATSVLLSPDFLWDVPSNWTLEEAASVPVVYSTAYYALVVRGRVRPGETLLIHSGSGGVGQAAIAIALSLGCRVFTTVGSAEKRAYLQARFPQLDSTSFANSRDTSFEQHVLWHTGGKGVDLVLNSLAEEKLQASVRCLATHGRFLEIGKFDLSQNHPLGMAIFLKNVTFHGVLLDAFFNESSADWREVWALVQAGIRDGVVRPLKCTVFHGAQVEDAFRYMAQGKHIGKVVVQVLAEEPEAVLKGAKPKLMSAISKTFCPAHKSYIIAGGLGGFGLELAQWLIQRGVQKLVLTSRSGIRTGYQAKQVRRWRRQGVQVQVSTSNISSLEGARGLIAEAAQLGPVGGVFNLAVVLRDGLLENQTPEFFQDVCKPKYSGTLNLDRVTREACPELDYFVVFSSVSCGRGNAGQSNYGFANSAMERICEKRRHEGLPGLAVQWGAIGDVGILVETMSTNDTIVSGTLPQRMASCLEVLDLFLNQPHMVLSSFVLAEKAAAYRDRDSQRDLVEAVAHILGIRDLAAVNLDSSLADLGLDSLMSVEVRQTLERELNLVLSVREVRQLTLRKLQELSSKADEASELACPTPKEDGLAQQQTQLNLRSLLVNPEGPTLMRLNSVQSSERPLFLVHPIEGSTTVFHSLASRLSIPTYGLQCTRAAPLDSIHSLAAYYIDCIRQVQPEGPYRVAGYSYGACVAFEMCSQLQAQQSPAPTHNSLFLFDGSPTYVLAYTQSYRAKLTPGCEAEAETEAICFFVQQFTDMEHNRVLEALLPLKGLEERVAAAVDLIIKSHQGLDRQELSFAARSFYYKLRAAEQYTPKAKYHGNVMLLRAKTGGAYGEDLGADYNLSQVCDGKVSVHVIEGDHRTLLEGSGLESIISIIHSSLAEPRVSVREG
Test: Fatty Acid Synthase (FASN) Inhibition Scintillation Proximity Assay
Type: biochemical
Details: 3H-acetyl-CoA and malonyl-CoA substrates, SPA, mean if tested more than once
measured.attribute: Human FASN pIC50

structure.smiles: CC1(C)N=C(c2ccc(-c3cccc4ncccc34)cc2F)N(C[C@@H]2CCN(C(=O)C3CC3)C2)C1=O
tested.on: hFASN enzyme (full length) (Homo sapiens (Human))
recorded.result: 6.78
--
structure.smiles: CC1(C)N=C(c2ccc(-c3n[nH]c4ccccc34)cc2F)N(C[C@@H]2CCN(C(=O)C3CC3)C2)C1=O
tested.on: hFASN enzyme (full length) (Homo sapiens (Human))
recorded.result: 6.48
--
structure.smiles: Cn1cc(-c2ccc(-c3ccc(C4=NC(C)(C)C(=O)N4CC4CN(C(=O)C5(O)CC5)C4)c(F)c3)cc2)cn1
tested.on: hFASN enzyme (full length) (Homo sapiens (Human))
recorded.result: 6.28
--
structure.smiles: CC1(C)N=C(c2ccc(-c3n[nH]c4ccccc34)cc2)N(CC2CN(C(=O)C3CC3)C2)C1=O
tested.on: hFASN enzyme (full length) (Homo sapiens (Human))
recorded.result: 5.26
--
structure.smiles: CC1(C)N=C(c2ccc(-c3ccc4cccnc4c3)cc2)N(C[C@@H]2CCN(C(=O)C3CC3)C2)C1=O
tested.on: hFASN enzyme (full length) (Homo sapiens (Human))
recorded.result: 7.25
--
structure.smiles: Cn1ncc2cc(-c3ccc(C4=NC(C)(C)C(=O)N4CC4CN(C(=O)C5(O)CC5)C4)c(F)c3)ccc21
tested.on: hFASN enzyme (full length) (Homo sapiens (Human))
recorded.result: 6.61
--
structure.smiles: CC1(C)N=C(c2ccc(-c3cccc4cnccc34)cc2F)N(CC2CN(C(=O)C3CC3)C2)C1=O
tested.on: hFASN enzyme (full length) (Homo sapiens (Human))
recorded.result: 5.87
